Tested on: primary human hepatic stellate cells (donor 1)
Assay: scaled lipid accumulation score (0 = DMSO-like, 1 = nortriptyline-like); higher = stronger HSC inactivation (lipid re-accumulation), active = hit call of the paper
Conditions: library stock concentration: 400 uM; 48 h
Among all 5,800 compounds or so, about 620 (11%) showed activity.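 The calls were made as follows: active = score above a cut-off or among the top three wells of a plate; in these data no inactive exceeds 0.85.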 The list comes from a sample in which actives are over-represented; it also holds close analogues and randomly drawn compounds.
Pick one: true for active, false for inactive

Solved cases (5 shown):
>>> category_label("COc1cc2c(Nc3ccc(Br)cc3F)ncnc2cc1OCC1CCN(C)CC1 [Vandetanib (ZD6474, Zactima) (0.4 mM)]")
"true"
>>> category_label("O=C(NCCCNc1nc(Nc2cccc(CN3CCOCC3)c2)ncc1C1CC1)C1CCC1")
"false"
>>> category_label("Nc1ccccc1NC(=O)c1ccc(CNC(=O)OCc2cccnc2)cc1")
"false"
>>> category_label("N#CC(c1ccnc(NCCc2cccnc2)n1)c1nc2ccccc2s1 (centres undefined)")
"false"
>>> category_label("Cc1ccc(NC(=O)Nc2cc(C(F)(F)F)ccc2F)cc1Nc1ccc2c(c1)NC(=O)/C2=C\\c1ccc[nH]1")
"false"

input: Hi, do you know how `CNC(=O)c1cc(Oc2ccc(NC(=O)Nc3ccc(Cl)c(C(F)(F)F)c3)cc2)ccn1` came out in this test?
output: false

input: Now try `Cc1cnc(Nc2ccc(OCCN3CCCC3)cc2)nc1Nc1cccc(S(=O)(=O)NC(C)(C)C)c1` .
output: false

input: Now try `CN1CCN(c2ccc(OC(F)(F)F)c(Nc3ncc4c(n3)-c3c(c(C(N)=O)nn3CCO)CC4)c2)CC1` .
output: false

input: Now try `Cc1ccc(C(=O)Nc2cccc(C(F)(F)F)c2)cc1Nc1nc(-c2cccnc2)nc2c1cnn2C` .
output: false

input: Now try Cc1oncc1C(=O)Nc1ccc(C(F)(F)F)cc1 [Leflunomide] .
output: false
